molecular target: CYP2C19 (Homo sapiens)
Sequence (P33261 whole entry): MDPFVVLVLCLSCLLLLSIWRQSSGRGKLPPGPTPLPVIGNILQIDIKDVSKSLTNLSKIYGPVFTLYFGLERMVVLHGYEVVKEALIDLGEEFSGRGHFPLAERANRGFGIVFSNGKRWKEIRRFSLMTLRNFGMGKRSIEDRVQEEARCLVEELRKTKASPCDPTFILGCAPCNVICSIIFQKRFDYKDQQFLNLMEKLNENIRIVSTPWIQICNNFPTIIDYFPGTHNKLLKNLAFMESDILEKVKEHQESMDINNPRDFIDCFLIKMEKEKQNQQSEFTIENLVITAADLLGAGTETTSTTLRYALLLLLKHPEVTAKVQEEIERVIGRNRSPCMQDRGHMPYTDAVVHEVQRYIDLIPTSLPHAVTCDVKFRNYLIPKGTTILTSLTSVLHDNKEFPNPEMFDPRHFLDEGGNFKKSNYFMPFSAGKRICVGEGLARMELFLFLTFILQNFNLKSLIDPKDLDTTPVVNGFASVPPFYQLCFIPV

COMPOUND | IC50 [µM]
O=c1cc(-c2ccccc2)oc2c(O)c(O)ccc12 [DHF, 7,8-dihydroxyflavone] | 19

* * *

target: CYP3A4 (Homo sapiens, UniProt P08684)
Sequence (P08684 whole entry): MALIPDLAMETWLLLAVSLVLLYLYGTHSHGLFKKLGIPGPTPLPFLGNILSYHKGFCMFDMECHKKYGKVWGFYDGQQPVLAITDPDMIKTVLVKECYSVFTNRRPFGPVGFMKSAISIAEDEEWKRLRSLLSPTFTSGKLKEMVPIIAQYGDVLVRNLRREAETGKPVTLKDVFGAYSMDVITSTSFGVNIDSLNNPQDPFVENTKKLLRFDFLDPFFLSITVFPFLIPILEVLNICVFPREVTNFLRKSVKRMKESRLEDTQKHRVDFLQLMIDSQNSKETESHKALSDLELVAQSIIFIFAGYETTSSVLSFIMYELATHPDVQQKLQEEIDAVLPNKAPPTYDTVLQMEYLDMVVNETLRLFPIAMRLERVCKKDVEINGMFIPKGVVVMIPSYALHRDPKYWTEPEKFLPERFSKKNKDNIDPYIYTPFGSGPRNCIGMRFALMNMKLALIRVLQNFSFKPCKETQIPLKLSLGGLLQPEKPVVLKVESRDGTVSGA
pIC50: −log10 of the molar value.

COMPOUND | pIC50
O=c1cc(-c2ccccc2)oc2c(O)c(O)ccc12 [DHF, 7,8-dihydroxyflavone] | 4.84

* * *

biological target: xanthine oxidase (XO; from bovine milk) (Bos taurus, UniProt P80457); construct: xanthine oxidase (XO; from bovine milk); experiment: Xanthine oxidase in vitro enzyme assay (6-mercaptopurine to 6-thiouric acid); details: substrate 6-mercaptopurine 5.0 μM
Sequence (P80457 whole entry): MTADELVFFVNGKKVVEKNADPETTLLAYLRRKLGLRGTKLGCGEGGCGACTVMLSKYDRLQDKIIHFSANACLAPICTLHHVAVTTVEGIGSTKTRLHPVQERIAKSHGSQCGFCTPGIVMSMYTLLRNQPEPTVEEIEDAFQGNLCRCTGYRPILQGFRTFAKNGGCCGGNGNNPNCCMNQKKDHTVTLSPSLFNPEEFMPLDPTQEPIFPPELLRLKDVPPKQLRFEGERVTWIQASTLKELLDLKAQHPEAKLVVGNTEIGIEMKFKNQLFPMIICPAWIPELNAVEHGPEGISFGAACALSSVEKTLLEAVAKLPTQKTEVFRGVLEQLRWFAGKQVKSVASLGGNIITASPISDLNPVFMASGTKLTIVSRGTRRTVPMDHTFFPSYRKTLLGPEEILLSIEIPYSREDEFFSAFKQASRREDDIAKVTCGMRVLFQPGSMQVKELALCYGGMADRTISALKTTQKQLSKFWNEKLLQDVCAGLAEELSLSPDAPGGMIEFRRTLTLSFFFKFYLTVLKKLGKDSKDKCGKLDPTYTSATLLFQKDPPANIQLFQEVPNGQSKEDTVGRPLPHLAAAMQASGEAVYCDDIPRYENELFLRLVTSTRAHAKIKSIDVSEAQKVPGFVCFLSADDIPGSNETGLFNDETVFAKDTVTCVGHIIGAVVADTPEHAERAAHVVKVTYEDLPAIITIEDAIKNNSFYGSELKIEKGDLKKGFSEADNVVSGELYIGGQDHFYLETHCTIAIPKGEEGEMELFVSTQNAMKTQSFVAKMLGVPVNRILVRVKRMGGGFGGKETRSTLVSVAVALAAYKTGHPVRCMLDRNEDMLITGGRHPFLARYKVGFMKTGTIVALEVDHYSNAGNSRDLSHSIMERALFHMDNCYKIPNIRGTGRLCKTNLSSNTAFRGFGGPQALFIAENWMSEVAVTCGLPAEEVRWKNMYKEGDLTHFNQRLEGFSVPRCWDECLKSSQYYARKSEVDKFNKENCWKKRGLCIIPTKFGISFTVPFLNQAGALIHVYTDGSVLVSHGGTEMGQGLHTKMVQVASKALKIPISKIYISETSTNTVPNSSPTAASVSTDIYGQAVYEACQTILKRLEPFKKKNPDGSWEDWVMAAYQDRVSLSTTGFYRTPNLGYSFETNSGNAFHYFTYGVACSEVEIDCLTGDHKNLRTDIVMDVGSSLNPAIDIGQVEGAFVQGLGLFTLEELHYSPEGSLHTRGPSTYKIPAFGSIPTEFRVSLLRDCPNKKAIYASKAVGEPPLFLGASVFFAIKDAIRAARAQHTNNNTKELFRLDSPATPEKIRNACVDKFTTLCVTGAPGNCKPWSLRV
pIC50: −log10 of the molar value.

COMPOUND | pIC50
O=c1cc(-c2ccccc2)oc2c(O)c(O)ccc12 [DHF, 7,8-dihydroxyflavone] | 4.96
